assay system: KAT-8 (Homo sapiens (Human), UniProt Q9H7Z6)
Sequence (Q9H7Z6 other isoform, or with tags, fused parts or gaps): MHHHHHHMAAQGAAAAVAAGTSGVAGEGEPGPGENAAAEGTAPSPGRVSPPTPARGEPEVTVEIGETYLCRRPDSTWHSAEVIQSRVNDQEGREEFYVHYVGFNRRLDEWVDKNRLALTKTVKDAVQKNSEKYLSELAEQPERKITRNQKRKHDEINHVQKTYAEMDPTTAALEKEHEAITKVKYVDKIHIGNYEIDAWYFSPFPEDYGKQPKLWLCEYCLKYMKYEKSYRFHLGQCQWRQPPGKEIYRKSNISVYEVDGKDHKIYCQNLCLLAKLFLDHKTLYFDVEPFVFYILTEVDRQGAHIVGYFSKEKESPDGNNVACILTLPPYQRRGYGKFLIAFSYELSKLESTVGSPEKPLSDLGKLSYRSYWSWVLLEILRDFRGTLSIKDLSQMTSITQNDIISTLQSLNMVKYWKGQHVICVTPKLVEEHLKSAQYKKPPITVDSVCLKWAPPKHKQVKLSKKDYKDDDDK
method: KAT-8 biochemical inhibition assay (SAMDI mass spectrometry)
pIC50: −log10 of the molar value.
measured attribute: pIC50

Example cases with answers are listed next.
>>> assay_result("Cc1ncc(-c2cc(Cl)c(F)c(C(=O)NNS(=O)(=O)CC3CCCCC3)c2)n1C [Compound I-29]")
"< 4.00"
>>> assay_result("Cc1cn(-c2cc(Cl)c(F)c(C(=O)NNS(=O)(=O)CC3CCOCC3)c2)nn1 [Compound I-50]")
"< 4.00"
>>> assay_result("COCCn1cnc(-c2cc(C)c(F)c(C(=O)NNS(=O)(=O)CC3CCOCC3)c2)c1 [Compound I-140]")
"< 4.00"

Moving on to another compound below.
*Q* Using the record for Cc1ncn(-c2cc(Cl)c(F)c(C(=O)NNS(=O)(=O)CC3CCOCC3)c2)n1 [Compound I-74] , state its measured pIC50.
*A* 4.30 to 5.00

###

assay system: KAT-7 (Homo sapiens (Human), UniProt O95251)
Sequence (O95251 other isoform, or with tags, fused parts or gaps): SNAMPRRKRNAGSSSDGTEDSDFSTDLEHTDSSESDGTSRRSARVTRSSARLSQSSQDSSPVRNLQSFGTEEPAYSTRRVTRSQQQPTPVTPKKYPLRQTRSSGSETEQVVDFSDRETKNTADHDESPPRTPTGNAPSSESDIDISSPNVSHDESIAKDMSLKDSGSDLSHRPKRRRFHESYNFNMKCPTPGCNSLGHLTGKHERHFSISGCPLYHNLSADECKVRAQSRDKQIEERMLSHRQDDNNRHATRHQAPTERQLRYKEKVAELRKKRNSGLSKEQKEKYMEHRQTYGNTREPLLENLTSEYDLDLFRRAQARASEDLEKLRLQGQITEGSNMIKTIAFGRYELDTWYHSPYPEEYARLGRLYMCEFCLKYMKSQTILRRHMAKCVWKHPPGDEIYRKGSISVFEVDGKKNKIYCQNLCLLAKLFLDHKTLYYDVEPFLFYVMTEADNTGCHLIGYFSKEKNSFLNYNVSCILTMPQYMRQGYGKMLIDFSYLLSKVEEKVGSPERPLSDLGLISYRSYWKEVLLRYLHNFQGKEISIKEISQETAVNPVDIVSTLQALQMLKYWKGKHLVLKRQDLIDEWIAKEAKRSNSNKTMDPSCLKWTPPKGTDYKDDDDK
method: KAT-7 biochemical inhibition assay (SAMDI mass spectrometry)
The entries below are paired with their reported IC50.

*Q* Name the recorded IC50 of Cn1cnc(-c2cc(C(=O)NNS(=O)(=O)CC3CCCCC3)c(F)c(Cl)c2N(C(=O)OC(C)(C)C)C(=O)OC(C)(C)C)c1 [Compound I-475] , assay system KAT-7 (Homo sapiens (Human), UniProt O95251).
*A* 50 to 100 µM

*Q* Look up and report measured IC50 (KAT-7 (Homo sapiens (Human), UniProt O95251)) for the following molecule: CO[C@H]1CC[C@H](CS(=O)(=O)NNC(=O)c2cc(-c3cn(C)cn3)cc(Cl)c2F)CC1 [Compound I-329]
*A* < 10 µM

*Q* Retrieve IC50 on KAT-7 (Homo sapiens (Human), UniProt O95251); query Cn1cnc(-c2cc(Cl)c(F)c(C(=O)NNS(=O)(=O)C[C@@H]3CCCO3)c2)c1 [Compound I-389]
*A* < 10 µM

*Q* Jot down IC50 (KAT-7 (Homo sapiens (Human), UniProt O95251)) of COCc1nc(-c2cc(Cl)c(F)c(C(=O)NNS(=O)(=O)CC3CCCCC3)c2)cn1C [Compound I-226] .
*A* < 10 µM

*Q* // fetch IC50; item: CC1CCCCC1CS(=O)(=O)NNC(=O)c1cc(-c2cn(C)cn2)cc(Cl)c1F (stereo not shown) [Compound I-335] ; system: KAT-7 (Homo sapiens (Human), UniProt O95251)
*A* < 10 µM

*Q* Write down the reported IC50 (system: KAT-7 (Homo sapiens (Human), UniProt O95251)) of Cc1cn(-c2cc(Cl)c(F)c(C(=O)NNS(=O)(=O)CC3CCOCC3)c2)nn1 [Compound I-50]
*A* 10 to 50 µM

*Q* Please tell me the measured IC50 for COc1ccc(CN(C)C(=O)N2CC[C@H](CS(=O)(=O)NNC(=O)c3cc(-c4cn(C)cn4)cc(Cl)c3F)C2)cc1 [Compound I-162] ; system: KAT-7 (Homo sapiens (Human), UniProt O95251).
*A* < 10 µM

###

assay system: KAT-8 (Homo sapiens (Human))
method: KAT-8 biochemical inhibition assay (SAMDI mass spectrometry)
Protocol: KAT-8. Enzyme assay buffer was 50 mM Tris pH 8.0, 0.002% Tween20, 0.005% bovine skin gelatin, and 1 mM dithiothreitol (DTT). For determination of IC50 values, compounds were serially diluted with 2% (v/v) DMSO in the final reaction, pre-incubating each dilution of each compound with 40 μL of assay buffer containing KAT-8 enzyme (12.5 nM final concentration). 10 μL of assay buffer containing 1 μM peptide substrate and 5 μM acetyl coenzyme A (final concentrations) was added. […]
pIC50: −log10 of the molar value.
measured attribute: pIC50

>>> assay_result("Cn1cnc(-c2cc(Cl)c(F)c(C(=O)NNS(=O)(=O)C[C@H]3CC[C@@H](NS(C)(=O)=O)CC3)c2)c1")
"4.30 to 5.00"
>>> assay_result("Cn1cnc(-c2cc(Cl)c(F)c(C(=O)NNS(=O)(=O)c3cn(C)cn3)c2)c1")
"4.30 to 5.00"
>>> assay_result("CCC(=O)N(C)C1CCCC(CS(=O)(=O)NNC(=O)c2cc(-c3cn(C)cn3)cc(Cl)c2F)C1 (stereo not drawn)")
"4.30 to 5.00"

*Q* Quickly give me recorded pIC50 for Cn1cnc(-c2cc(Cl)c(F)c(C(=O)NNS(=O)(=O)c3ccccn3)c2)c1
*A* 4.30 to 5.00

*Q* Please give measured pIC50 of the following entry: CN(C)C(=O)N1CC(CS(=O)(=O)NNC(=O)c2cc(-c3cn(C)cn3)cc(Cl)c2F)C1
*A* 4.30 to 5.00

*Q* Annotate the compound CNC(=O)N[C@H]1CC[C@H](CS(=O)(=O)NNC(=O)c2cc(-c3cn(C)cn3)cc(Cl)c2F)CC1 with its measured pIC50.
*A* 4.30 to 5.00

*Q* Item CCNC(=O)N(C)C1CCCC(CS(=O)(=O)NNC(=O)c2cc(-c3cn(C)cn3)cc(Cl)c2F)C1 (stereo not drawn) : provide pIC50
*A* 4.30 to 5.00
